Assay name: NCI Yeast Anticancer Drug Screen. Data for the cln2 rad14 strain (AID 165);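 also: 0% = growth equal to vehicle treated cultures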
Cond: S. cerevisiae cln2 rad14 strain, at 50.0 µM, active compounds read high
Compounds without any hit were thinned out: in the full panel of roughly 79,000, 15% have a hit. Active and inactive are the calls of the source. Rule as the data show it: active = growth inhibition above about 70%; inactive = the rest.
Measured metric: growth inhibition

Reported growth inhibition for COc1cc2c(cc1O)N=C[C@@H]1CCC(O)N1C2=O (mixture of isomers) was 58.8% (inactive)

Kindly note the recorded growth inhibition for C=NCC#N , which is 67.3% (inactive)

growth inhibition measured on O.[Co].[NH2-].[NH2-].[NH2-].[NH2-].[NH2-] = 12.8% (inactive)

Memo: CC1([N+](=O)[O-])COP(=O)(OP2(=O)OCC(C)([N+](=O)[O-])CO2)OC1 (stereo not given) , reported growth inhibition: 26.6% (inactive)

The molecule listed as [CH3][Pb]([CH3])([CH3])[O]C(=O)c1ccc([N+](=O)[O-])cc1 has a reported growth inhibition of 8.8% (inactive)

Notebook: CC(C)=CCC/C(C)=C/CC/C(C)=C/Cc1c(O)c2ccccc2oc1=O , growth inhibition read as 89.2% (active)

Please fill in: growth inhibition reported for O=C(Oc1cc(Cl)c(S(=O)(=O)F)cc1Cl)c1ccccc1Cl = 86.8% (active)

====

Assay name: NCI Yeast Anticancer Drug Screen. Data for the mec2-1 strain (AID 157)
Cond: S. cerevisiae mec2-1 strain, at 50.0 µM, active compounds read high
About 79,000 compounds went through this panel and 15% of them were active in at least one assay; those are over-represented in the sample as a whole.
Measured metric: growth inhibition (%)
Dear colleague, please return just the value in %, with no unit written.

Example results:
COc1ccc2c(c1)CC(CN1CCC3(CC1)C(=O)NCN3c1ccccc1)O2 (stereo unspecified) ... 57
O=[As]c1ccccc1O (stereo unspecified) ... 98.1
[C-]#[O+].[C-]#[O+].[Mo].[N-]=Nc1ccc([N+](=O)[O-])cc1.[c-]1[c-][c-][cH-][c-]1 ... 21.3
CN(C)CC1(N)C(=O)NC(=O)NC1=O ... 78
SCc1c(Cl)c(Cl)c(Cl)c(Cl)c1Cl.[Hg] ... -24.9

Item: CC1(C)CN=C(Nc2ccc(F)c(F)c2)S1 | growth inhibition: 3.8

Sure, the documented growth inhibition for O=C(O)C(O)C(O)C(O)C(O)C(O)C(O)CO (stereo unspecified) is -6.95

Sure, the documented growth inhibition for CNC(Cc1ccccc1)c1cccc(O)c1 (stereo unspecified) is -6.2

Given item Cc1cc(OC(=O)N(CCCl)CCCl)c(C(C)C)cc1N=O , the value recorded as its growth inhibition is 97.5

Please fill in: growth inhibition reported for Cc1cc(C)[n+](CCc2ccccc2)c(C)c1 = 2.55

Lab book: growth inhibition of [C-]#[O+].[C-]#[O+].[C-]#[O+].[C-]#[O+].[Cr].c1ccc([PH+](c2ccccc2)c2ccccc2)cc1.c1ccc([PH+](c2ccccc2)c2ccccc2)cc1 noted as 8.05

====

Assay name: NCI Yeast Anticancer Drug Screen. Data for the sgs1 mgt1 strain (AID 161);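 also: 0% = growth of cultures given vehicle only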
Cond: S. cerevisiae sgs1 mgt1 strain, at 50.0 µM, active compounds read high
The panel holds about 79,000 compounds, 15% with a hit somewhere; the sample as a whole holds those more often.
Attribute: growth inhibition
Output spec: scalar in %, unitless text.

CC(C)(C)NC(=O)C(Cl)Cl ... -5.85
NC(=O)Nc1ccc([As](Sc2ccccc2C(=O)O)Sc2ccccc2C(=O)O)cc1 ... 17.3
CC(C)=CC1C(C(=O)OCCOc2ccccc2)C1(C)C (stereo unspecified) ... 10.2

For reference, reported growth inhibition for CN(Cc1cnc2nc(N)nc(N)c2n1)c1ccc(C(=O)NC(CCC(=O)NC(CC(P(=O)(O)O)P(=O)(O)O)C(=O)O)C(=O)O)cc1 (stereo unspecified) stands at -8.05

====

Assay name: NCI Yeast Anticancer Drug Screen. Data for the cln2 rad14 strain (AID 165);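 also: 0% = growth equal to vehicle treated cultures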
Cond: S. cerevisiae cln2 rad14 strain, at 50.0 µM, active compounds read high
This is part of a sample that, as a whole, favours compounds with a hit. Of some 79,000 tested, about 15% had one in any assay. The source made the active and inactive calls. Cut-off read from the data, not from the text of the source: active = growth inhibition above about 70%; inactive = the rest.
Measured metric: growth inhibition

CCC1=C(CC2NCCc3cc(OC)c(OC)cc32)CC2c3ccccc3CCN2C1 (stereo unspecified) ... -9.75% (inactive)
CCC[CH2][Sn]([CH3])([CH3])[CH2]CC[N+](C)(C)C ... 45% (inactive)
ClC1=C(Cl)C2(Cl)C3C(C4(Cl)C(Cl)=C(Cl)C3(Cl)C4(Cl)Cl)C2(Cl)C1(Cl)Cl (stereo unspecified) ... -71% (inactive)
CC(C)C(NC(=O)CCl)C(=O)O (stereo unspecified) ... -11.4% (inactive)
O=[N+]([O-])c1ccc([As](=O)(O)c2cccc([N+](=O)[O-])c2)cc1 ... -28.9% (inactive)

Memo: CN1C(=O)C(=Cc2cccc([N+](=O)[O-])c2)C(=O)N(C)C1=O , reported growth inhibition: 26.1% (inactive)

Memo: Cn1cnc([N+](=O)[O-])c1C(=O)O , reported growth inhibition: -13.2% (inactive)

compound CCOC(=O)C(C)(C)C(OP(=S)(OCC)OCC)=C(C)C , growth inhibition observed: 23.8% (inactive)

Looking up O=C(COc1ccc(Cl)c(Cl)c1)Nc1ccc[n+](Cc2c(Cl)cccc2S(=O)(=O)F)c1 , I found its growth inhibition recorded as 39.9% (inactive)

GET /value?item= Cc1ccc2[nH]cc(CCN(C)C)c2c1 &field=growth inhibition returns 7.65% (inactive)

====

Assay name: NCI Yeast Anticancer Drug Screen. Data for the sgs1 mgt1 strain (AID 161);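 also: 0% = growth of cultures given vehicle only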
Cond: S. cerevisiae sgs1 mgt1 strain, at 50.0 µM (retest, dose inferred, filed as 5.0)
About 79,000 compounds went through this panel and 15% of them were active in at least one assay; those are over-represented in the sample as a whole. The source made the active and inactive calls. No stated cut-off is given here; in the data, active means growth inhibition above about 70%; inactive means the rest.
Could you please pick one outcome from this set? 1.0 for active, 0.0 for inactive

C1OCC2[CH2][Hg][S][Hg][CH2]C1O2 ... 1.0
CC(=O)CC(=O)Nc1c(C)[c]([Hg][O]C(C)=O)c(C)[c]([Hg][O]C(C)=O)[c]1[Hg][O]C(C)=O ... 1.0
O=[As]c1ccc(O)c(O)c1 (configuration not stated) ... 1.0
O=C([CH-]C(=O)c1ccccc1)c1ccccc1.O=C([CH-]C(=O)c1ccccc1)c1ccccc1.O=C([CH-]C(=O)c1ccccc1)c1ccccc1.[Nd+3].[OH3+] ... 1.0
CC/C(=C\c1ccccc1)[N+](=O)[O-] ... 1.0

(Q) Which outcome was entered for the compound COC1OC(CO)C(O)C(O)[CH]1[Hg][Cl] (configuration not stated) in this test?
(A) 1.0

(Q) Given CCSc1nc(=[N+]2CCCC2)ss1 , state the outcome it received in this test.
(A) 1.0

(Q) Which outcome was entered for the compound CC[C@@H]1C(=O)OC[C@@H]1Cc1cncn1C in this test?
(A) 0.0

(Q) I would be grateful if you could indicate the recorded call for O=C1CCCC1Cl (configuration not stated) .
(A) 0.0

(Q) Hey, what did the test say about CC(=O)NNc1ccccc1 ?
(A) 0.0

(Q) In this assay, the call recorded for CC1=C/C(=C2/N=C(N(C)C)SS2)C(C)=N1 was what?
(A) 1.0

(Q) What was the test verdict on N#C[S-].[La+3].c1cnc2c(c1)ccc1cccnc12.c1cnc2c(c1)ccc1cccnc12.c1cnc2c(c1)ccc1cccnc12 ?
(A) 1.0

====

Assay name: NCI Yeast Anticancer Drug Screen. Data for the mlh1 rad18 strain (AID 175)
Cond: S. cerevisiae mlh1 rad18 strain growth inhibition; at 50.0 µM (retest, dose inferred, filed as 5.0); active compounds read high
The panel holds about 79,000 compounds, 15% with a hit somewhere; the sample as a whole holds those more often.
Measured metric: growth inhibition (%)
Please state the figure in %; there is no need to write the unit.

Consider the worked cases shown below.
CCCCSc1ccc(C(SCCN(CC)CC)c2ccccc2)cc1 (stereo not drawn) ... 99
[N-]=[N+]=NS(=O)(=O)c1ccccc1S(=O)(=O)N=[N+]=[N-] ... 99

--- query ---
For C=CCc1cc(Cl)ccc1OC(=O)N(C)C the molecule record lists growth inhibition as -1

====

Below: a set of entries, each annotated with reported growth inhibition.
Assay name: NCI Yeast Anticancer Drug Screen. Data for the cln2 rad14 strain (AID 165);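 also: 0% = growth equal to vehicle treated cultures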
Cond: S. cerevisiae cln2 rad14 strain, at 50.0 µM, active compounds read high
About 79,000 compounds went through this panel and 15% of them were active in at least one assay; those are over-represented in the sample as a whole. Active and inactive are the calls of the source. No stated cut-off is given here; in the data, active means growth inhibition above about 70%; inactive means the rest.

NC1CC2CCCCC2CC1c1ccccc1 (configuration not stated) ... 11.9% (inactive)
CCN(CC)P1(=O)OP(=O)(N(CC)CC)OP(=O)(N(CC)CC)O1 (configuration not stated) ... 14.3% (inactive)
COP(=O)(NC(=O)OC(C)C)OC ... 5.2% (inactive)
COc1ccc(CC(N)c2ccccc2)cc1 (configuration not stated) ... 10.2% (inactive)
CC1(C)OP23(NC(=O)OC2(C(F)(F)F)c2ccccc2O3)OC1(C)C (configuration not stated) ... -4.1% (inactive)

For record COc1cc(/C=C/c2ccc(OC)c(O)c2)cc(OC)c1 the listed growth inhibition is 98.2% (active)

Per the record, NC(=O)NNC(=O)C(Cl)(Cl)Cl has growth inhibition of -63.3% (inactive)

So for CCOP(=O)(OCC)/C(=C/c1cccs1)CC(C)=O , the logged growth inhibition turned out to be 14.6% (inactive)

Given item CCc1cccc(C(C)C)c1NC(=O)C(=O)C1C(=O)NC(=O)NC1=O , the value recorded as its growth inhibition is 18.1% (inactive)

Value of measured growth inhibition for the entry CCOP(=O)(OCC)/C(C#N)=C/c1cc(O)ccc1O : -10.2% (inactive)

For reference, reported growth inhibition for NC(C(=O)[O-])C(=O)[O-].NC1CCCCC1N.[Pt+4] stands at -31.6% (inactive)

So for C[N+](C)(C)NP(=O)(N[N+](C)(C)C)c1ccccc1 , the logged growth inhibition turned out to be 11.6% (inactive)
